Provenance of the data: patent US8940769B2

Please go through the items and note down their inhibition at 0.2 µM.
Target: human vanilloid receptor VR-1 (hVR1) (Homo sapiens, UniProt Q8NER1)
Construct: expressed in transfected cells; host or cells: HEK293 Tet-on cells (hVR1-HEK293), expression induced with doxycycline
Sequence (Q8NER1 whole entry): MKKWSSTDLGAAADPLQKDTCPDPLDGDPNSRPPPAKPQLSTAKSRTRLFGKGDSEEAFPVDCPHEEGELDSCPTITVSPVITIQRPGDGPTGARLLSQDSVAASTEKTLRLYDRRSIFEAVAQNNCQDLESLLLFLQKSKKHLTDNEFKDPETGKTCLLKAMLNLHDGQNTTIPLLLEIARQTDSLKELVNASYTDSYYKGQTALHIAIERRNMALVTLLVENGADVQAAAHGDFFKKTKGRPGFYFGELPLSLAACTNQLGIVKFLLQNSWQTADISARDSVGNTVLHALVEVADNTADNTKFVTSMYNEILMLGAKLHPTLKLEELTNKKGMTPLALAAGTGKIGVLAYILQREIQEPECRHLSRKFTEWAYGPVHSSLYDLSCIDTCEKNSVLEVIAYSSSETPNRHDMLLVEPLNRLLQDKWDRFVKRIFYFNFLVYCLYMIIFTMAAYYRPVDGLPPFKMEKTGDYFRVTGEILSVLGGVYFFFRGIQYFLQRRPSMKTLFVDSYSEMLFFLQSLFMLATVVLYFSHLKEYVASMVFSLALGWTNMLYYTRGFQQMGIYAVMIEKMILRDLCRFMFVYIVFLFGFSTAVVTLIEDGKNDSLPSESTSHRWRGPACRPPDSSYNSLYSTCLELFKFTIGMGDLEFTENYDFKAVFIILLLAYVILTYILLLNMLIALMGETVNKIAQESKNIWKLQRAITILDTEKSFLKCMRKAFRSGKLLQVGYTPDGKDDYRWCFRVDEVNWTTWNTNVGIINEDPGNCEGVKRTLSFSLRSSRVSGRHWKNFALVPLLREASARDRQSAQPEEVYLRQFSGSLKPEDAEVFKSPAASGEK
Experiment: Calcium influx test of vanilloid receptor (capsaicin-induced, Fluo-3/AM, hVR1-HEK293 cells)
Assay type: cell-based
Details: single concentration of compound 200 nM, 1 μM capsaicin, read-out: Inhibitory effect (%) on calcium influx
Kindly answer with a numeric value in %, unit omitted.

inhibition at 0.2 µM measured on "OCc1cnc(-c2ccc(-c3nc4ncc(Br)cc4[nH]3)cc2)c(Cl)c1" = 1.7

inhibition at 0.2 µM reading for "COC(=O)c1cnc(-c2ccc(-c3nc4c(Br)cc(Br)cc4[nH]3)nc2)c(Cl)c1" : 4.1

The molecule "CC(=O)OCc1cnc(-c2ccc(-c3nc4ccc(C(C)(C)C)cc4[nH]3)cc2)c(Cl)c1" showed inhibition at 0.2 µM equal to 14.6

Entry "O=C(O)c1cnc(-c2ccc(-c3nc4ccc(C(F)(F)F)cc4[nH]3)cc2)c(Cl)c1" , inhibition at 0.2 µM reported as -3.1

Lookup result for "CCNC(=O)c1cnc(-c2ccc(-c3nc4ccc(Br)cc4[nH]3)nc2)c(Cl)c1" ; measured inhibition at 0.2 µM: 17.5

Memo: "COC(=O)c1cnc(-c2ccc(-c3nc4ccc(C(C)(C)C)cc4[nH]3)cc2)c(Cl)c1" , reported inhibition at 0.2 µM: 85

The molecule "COC(=O)c1cnc(-c2ccc(-c3nc4ccc(C(F)(F)F)cc4[nH]3)nc2)c(Cl)c1" showed inhibition at 0.2 µM equal to 56.1

For reference, reported inhibition at 0.2 µM for "O=C(O)c1cnc(-c2ccc(-c3nc4c(Br)cc(C(F)(F)F)cc4[nH]3)nc2)c(Cl)c1" stands at 4.2

Reported inhibition at 0.2 µM for "CCNC(=O)c1cnc(-c2ccc(-c3nc4ncc(Br)cc4[nH]3)cc2)c(Cl)c1" was 11.1

Data point: "CCNC(=O)c1cnc(-c2ccc(-c3nc4ccc(N5CCOCC5)cc4[nH]3)nc2)c(Cl)c1" ; inhibition at 0.2 µM = -0.6

====

Target: human vanilloid receptor VR-1 (hVR1) (Homo sapiens, UniProt Q8NER1)
Construct: expressed in transfected cells; host or cells: HEK293 Tet-on cells (hVR1-HEK293), expression induced with doxycycline
Experiment: Calcium influx test of vanilloid receptor (capsaicin-induced, Fluo-3/AM, hVR1-HEK293 cells)
Assay type: cell-based
Conditions: single concentration of compound 200 nM, 1 μM capsaicin, read-out: Inhibitory effect (%) on calcium influx
result.type: inhibition at 0.2 µM (%)
Response body: numeric value in %, unit text excluded.

Consider "OCc1cnc(-c2ccc(-c3nc4ccc(C(F)(F)F)cc4[nH]3)nc2)c(Cl)c1" . Its measured inhibition at 0.2 µM is 30

Entry under test: "O=C(O)c1cnc(-c2ccc(-c3nc4ccc(Br)cc4[nH]3)cc2)c(Cl)c1" . Its inhibition at 0.2 µM was 3.3

// inhibition at 0.2 µM value for "CC(C)(C)c1ccc2nc(-c3ccc(-c4ncc(C=O)cc4Cl)cc3)[nH]c2c1" : 82.5

// recorded inhibition at 0.2 µM for "CCNC(=O)c1cnc(-c2ccc(-c3nc4c(Br)cc(Br)cc4[nH]3)nc2)c(Cl)c1" : 13.2

====

Biological target: human vanilloid receptor VR-1 (hVR1) (Homo sapiens)
Construct: expressed in transfected cells; host or cells: HEK293 Tet-on cells (hVR1-HEK293), expression induced with doxycycline
Assay: Calcium influx test of vanilloid receptor (capsaicin-induced, Fluo-3/AM, hVR1-HEK293 cells)
Format: cell-based
Conditions: single concentration of compound 200 nM, 1 μM capsaicin, read-out: Inhibitory effect (%) on calcium influx
Protocol: In order to measure an activity of the biaryl benzoimidazole derivative of the invention as an antagonist, a calcium influx test was performed. An hVR1-HEK293 cell line is a cell line, in which a Human Embryonic Kidney (HEK) 293 Tet-on cell is transformed with a human vanilloid-1 gene (pTRE2hyg-hVR1, 7.8 kb). […] The inhibitory effect on calcium influx was measured with a single concentration of the compounds of the invention (200 nM), and the result thereof are shown in Table 2.
result.type: inhibition at 0.2 µM (%)
Give just the number in %; leave the unit off.

Query "CCNC(=O)c1cnc(-c2ccc(-c3nc4ccc(C(C)(C)C)cc4[nH]3)nc2)c(Cl)c1" yields inhibition at 0.2 µM of 13.2

Input "CC(C)(C)c1ccc2nc(-c3ccc(-c4ncc(C(=O)O)cc4Cl)cc3)[nH]c2c1" . Output inhibition at 0.2 µM: -1

Recorded result, "COC(=O)c1cnc(-c2ccc(-c3nc4ccc(C(F)(F)F)cc4[nH]3)cc2)c(Cl)c1" , inhibition at 0.2 µM: 38.7

Lab book: inhibition at 0.2 µM of "CCNC(=O)c1cnc(-c2ccc(-c3nc4ccc(C(F)(F)F)cc4[nH]3)cc2)c(Cl)c1" noted as 23.4

====

Molecular target: human vanilloid receptor VR-1 (hVR1) (Homo sapiens)
Construct: expressed in transfected cells; host or cells: HEK293 Tet-on cells (hVR1-HEK293), expression induced with doxycycline
Assay: Calcium influx test of vanilloid receptor (capsaicin-induced, Fluo-3/AM, hVR1-HEK293 cells)
Type: cell-based
Conditions: single concentration of compound 200 nM, 1 μM capsaicin, read-out: Inhibitory effect (%) on calcium influx
Label false (0) if inhibition at 0.2 µM falls below 10%; label true (1) in every other case.

**Query** Kindly determine if inhibition at 0.2 µM recorded for "O=C(O)c1cnc(-c2ccc(-c3nc4ccc(C(F)(F)F)cc4[nH]3)nc2)c(Cl)c1" is above or exactly 10%.
**Result** false (0)

**Query** Is the recorded value of inhibition at 0.2 µM equal to or greater than 10% for this compound? "COC(=O)c1cnc(-c2ccc(-c3nc4c(Br)cc(C(F)(F)F)cc4[nH]3)cc2)c(Cl)c1"
**Result** true (1)

**Query** Item "C=Cc1cnc(-c2ccc(-c3nc4ccc(Cl)cc4[nH]3)nc2)c(Cl)c1" with inhibition at 0.2 µM of 10% or above?
**Result** true (1)

**Query** Hi, just wondering whether "COC(=O)c1cnc(-c2ccc(-c3nc4ccc(Br)cc4[nH]3)nc2)c(Cl)c1" shows inhibition at 0.2 µM of 10% or higher.
**Result** true (1)

**Query** Hi, just wondering whether "COC(=O)c1cnc(-c2ccc(-c3nc4ccc(N5CCN(C)CC5)cc4[nH]3)nc2)c(Cl)c1" shows inhibition at 0.2 µM of 10% or higher.
**Result** false (0)

**Query** Hi team, for "C=Cc1cnc(-c2ccc(-c3nc4ccc(C(F)(F)F)cc4[nH]3)cc2)c(Cl)c1" , is the recorded inhibition at 0.2 µM at or above 10%?
**Result** false (0)

**Query** Assess whether reported inhibition at 0.2 µM for "OCc1cnc(-c2ccc(-c3nc4c(Br)cc(C(F)(F)F)cc4[nH]3)nc2)c(Cl)c1" sits at 10% or higher.
**Result** true (1)

**Query** Hi team, for "C=Cc1cnc(-c2ccc(-c3nc4c(Br)cc(C(F)(F)F)cc4[nH]3)cc2)c(Cl)c1" , is the recorded inhibition at 0.2 µM at or above 10%?
**Result** false (0)

**Query** Can "OCc1cnc(-c2ccc(-c3nc4ccc(Br)cc4[nH]3)nc2)c(Cl)c1" be said to have inhibition at 0.2 µM at or above 10%?
**Result** true (1)

**Query** Given the entry "CN1CCN(c2ccc3nc(-c4ccc(-c5ncc(CO)cc5Cl)cc4)[nH]c3c2)CC1" , answer whether its inhibition at 0.2 µM meets or surpasses 10%.
**Result** false (0)

**Query** Can "O=C(O)c1cnc(-c2ccc(-c3nc4ccc(Br)cc4[nH]3)nc2)c(Cl)c1" be said to have inhibition at 0.2 µM at or above 10%?
**Result** true (1)

**Query** Quick check: does "COC(=O)c1cnc(-c2ccc(-c3nc4ncc(Br)cc4[nH]3)cc2)c(Cl)c1" have inhibition at 0.2 µM greater than or equal to 10%?
**Result** false (0)

**Query** Hello, I need to know if "C=Cc1cnc(-c2ccc(-c3nc4c(Br)cc(C(F)(F)F)cc4[nH]3)nc2)c(Cl)c1" has measured inhibition at 0.2 µM not below 10%. Thanks!
**Result** false (0)

**Query** Is inhibition at 0.2 µM at least 10%? Consider "COC(=O)c1cnc(-c2ccc(-c3nc4ccc(Br)cc4[nH]3)cc2)c(Cl)c1"
**Result** true (1)

**Query** # bool: inhibition at 0.2 µM of "OCc1cnc(-c2ccc(-c3nc4ccc(N5CCOCC5)cc4[nH]3)cc2)c(Cl)c1" >= 10%
**Result** false (0)

**Query** Please check the record "C=Cc1cnc(-c2ccc(-c3nc4ccc(Cl)cc4[nH]3)cc2)c(Cl)c1" and state if its inhibition at 0.2 µM is at or above 10%.
**Result** false (0)
